# target desc: T1, soluble KDR extracellular domain (ECD) (Calbiochem) (human, UniProt P35968 20-764)
# T1 construct: extracellular domain; Bought protein; also called KDR-ECD; VEGF Receptor 2 D1-7, Cat. #676490
# T1 sequence (P35968 20-764): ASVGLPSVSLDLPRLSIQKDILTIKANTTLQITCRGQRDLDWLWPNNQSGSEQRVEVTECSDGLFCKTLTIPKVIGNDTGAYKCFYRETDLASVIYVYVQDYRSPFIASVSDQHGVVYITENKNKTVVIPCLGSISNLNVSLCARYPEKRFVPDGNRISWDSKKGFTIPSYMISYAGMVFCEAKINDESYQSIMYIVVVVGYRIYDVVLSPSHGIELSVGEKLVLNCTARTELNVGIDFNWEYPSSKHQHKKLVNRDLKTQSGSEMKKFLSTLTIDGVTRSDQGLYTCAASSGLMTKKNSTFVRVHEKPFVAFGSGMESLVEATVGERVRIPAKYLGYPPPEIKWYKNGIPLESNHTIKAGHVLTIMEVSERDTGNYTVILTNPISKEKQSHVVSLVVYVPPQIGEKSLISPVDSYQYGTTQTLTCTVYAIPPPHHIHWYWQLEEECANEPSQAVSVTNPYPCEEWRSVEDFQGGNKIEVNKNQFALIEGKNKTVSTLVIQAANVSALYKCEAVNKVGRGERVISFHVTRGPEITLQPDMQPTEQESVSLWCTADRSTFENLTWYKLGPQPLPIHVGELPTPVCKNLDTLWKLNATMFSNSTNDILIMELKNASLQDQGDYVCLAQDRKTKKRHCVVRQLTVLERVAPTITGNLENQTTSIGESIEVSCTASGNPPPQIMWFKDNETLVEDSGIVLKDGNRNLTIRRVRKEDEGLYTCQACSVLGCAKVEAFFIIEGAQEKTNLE
# assay name: High Antigen ELISA, KDR coat 500 ng/mL, supernatant 1:225
endpoint label: ELISA reading

• 30D7 (antibody, V domains shown, Fully human mAb from XenoMouse hybridoma, tested as hybridoma supernatant) VH: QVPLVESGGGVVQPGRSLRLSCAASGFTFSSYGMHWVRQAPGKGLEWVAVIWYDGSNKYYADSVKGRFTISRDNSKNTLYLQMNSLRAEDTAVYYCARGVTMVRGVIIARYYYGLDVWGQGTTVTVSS VL: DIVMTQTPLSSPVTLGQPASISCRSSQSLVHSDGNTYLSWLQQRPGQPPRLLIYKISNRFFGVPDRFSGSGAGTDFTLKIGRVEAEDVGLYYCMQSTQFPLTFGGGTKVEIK = 6
• 33D5 (antibody, V domains shown, Fully human mAb from XenoMouse hybridoma, tested as hybridoma supernatant) VH: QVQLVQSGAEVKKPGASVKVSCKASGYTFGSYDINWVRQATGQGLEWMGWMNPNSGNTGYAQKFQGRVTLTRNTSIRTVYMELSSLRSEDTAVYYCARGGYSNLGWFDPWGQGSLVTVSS VL: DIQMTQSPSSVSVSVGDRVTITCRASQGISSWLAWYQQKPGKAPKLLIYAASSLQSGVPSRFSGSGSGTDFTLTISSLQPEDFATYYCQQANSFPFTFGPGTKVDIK = 4.78
• 27A3 (antibody, V domains shown, Fully human mAb from XenoMouse hybridoma, tested as hybridoma supernatant) VH: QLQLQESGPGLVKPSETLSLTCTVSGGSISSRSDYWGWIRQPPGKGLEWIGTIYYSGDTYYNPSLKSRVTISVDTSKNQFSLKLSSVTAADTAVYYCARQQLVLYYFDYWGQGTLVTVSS VL: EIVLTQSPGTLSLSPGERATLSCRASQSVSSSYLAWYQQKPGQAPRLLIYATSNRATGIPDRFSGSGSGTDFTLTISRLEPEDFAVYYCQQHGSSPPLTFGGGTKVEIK = 5.26
